Listed below: viability values for each entry.
Tested on: primary AML patient cells (S089)
Assay: viability relative to DMSO control (fraction); higher = less drug effect (more viable cells)
Conditions: 0.2 µM; 48 h

# Compound, viability
records = [
    ("CCc1cnn2c(NCc3ccc[n+]([O-])c3)cc(N3CCCC[C@H]3CCO)nc12 [Dinaciclib]", 0.0447),
    ("Cc1nc(Nc2ncc(C(=O)Nc3c(C)cccc3Cl)s2)cc(N2CCN(CCO)CC2)n1 [Dasatinib]", 0.504),
    ("COc1cccc2c1C(=O)c1c(O)c3c(c(O)c1C2=O)C[C@@](O)(C(=O)CO)C[C@@H]3O[C@H]1C[C@H](N)[C@H](O)[C@H](C)O1 [Doxorubicin]", 0.665),
    ("COc1cccc2c1C(=O)c1c(O)c3c(c(O)c1C2=O)C[C@@](O)(C(C)=O)C[C@@H]3O[C@H]1C[C@H](N)[C@H](O)[C@H](C)O1 [Daunorubicin]", 0.132),
    ("Nc1ccc2ncnc(NCCc3ccc(Oc4ccccc4)cc3)c2c1 [EVP4593]", 0.629),
]

====

Test system: primary AML patient cells (S006)
Assay: viability relative to DMSO control (fraction); higher = less drug effect (more viable cells)
Settings: 0.2 µM; 48 h

# Compound, viability
measured = [
    ("Cc1nc(Nc2ncc(C(=O)Nc3c(C)cccc3Cl)s2)cc(N2CCN(CCO)CC2)n1", 0.808),
    ("O=C1c2c(O)ccc(O)c2C(=O)c2c(NCCNCCO)ccc(NCCNCCO)c21", 0.0754),
    ("C/C=C1\\NC(=O)[C@H]2CSSCC/C=C/[C@H](CC(=O)N[C@H](C(C)C)C(=O)N2)OC(=O)[C@H](C(C)C)NC1=O", 0.0886),
    ("Nc1cccc2c1CN(C1CCC(=O)NC1=O)C2=O (centres undefined) [Lenalidomide]", 0.463),
]

====

This listing pairs compounds with measured viability.
System: primary MCL patient cells (S041)
Experiment: viability relative to DMSO control (fraction); higher = less drug effect (more viable cells)
Settings: 3 µM; 48 h

# Smiles Code, viability
measured = [
    ("N#Cc1ccnc(N2C(=O)CC[C@H]2C(=O)N(c2cncc(F)c2)[C@H](C(=O)NC2CC(F)(F)C2)c2ccccc2Cl)c1", 1),
    ("O=C(Nc1cccc(C(F)(F)F)c1)Nc1cc(S(=O)(=O)NC2CC2)ccc1-c1ccsc1", 0.868),
    ("Nc1nc(Cl)nc2c1ncn2[C@@H]1O[C@H](CO)[C@@H](O)[C@@H]1F", 0.0397),
    ("CCc1nc(C(N)=O)c(Nc2ccc(N3CCC(N4CCN(C)CC4)CC3)c(OC)c2)nc1NC1CCOCC1", 0.647),
    ("Cc1cc(Nc2ncc(Cl)c(Nc3ccccc3S(=O)(=O)C(C)C)n2)c(OC(C)C)cc1C1CCNCC1", 0.654),
    ("Oc1ccc(/C=C/c2cc(O)cc(O)c2)cc1", 0.896),
]

====

Tested on: primary AML patient cells (S056)
Experiment: viability relative to DMSO control (fraction); higher = less drug effect (more viable cells)
Conditions: 15 µM; 48 h
Each record here notes measured viability.

# Smiles Code, viability
data = [
    ("O=C(O)CSc1cc(NS(=O)(=O)c2ccc(Br)cc2)c2ccccc2c1O", 0.434),
    ("CCN1CCN(Cc2ccc(Nc3ncc(F)c(-c4cc(F)c5nc(C)n(C(C)C)c5c4)n3)nc2)CC1", 0.0316),
    ("Nc1ncn([C@H]2C[C@H](O)[C@@H](CO)O2)c(=O)n1", 0.766),
    ("O=C(Nc1cccc(C(F)(F)F)c1)Nc1cc(S(=O)(=O)NC2CC2)ccc1-c1ccsc1", 0.7),
]

====

Tested on: primary MCL patient cells (S053)
Experiment: viability relative to DMSO control (fraction); higher = less drug effect (more viable cells)
Details: 3 µM; 48 h
compounds and their reported viability

# Smiles Code, viability
rows = [
    ("Cc1cc(Nc2ncc(Cl)c(Nc3ccccc3S(=O)(=O)C(C)C)n2)c(OC(C)C)cc1C1CCNCC1", 0.832),
    ("Oc1ccc(/C=C/c2cc(O)cc(O)c2)cc1", 0.686),
    ("Nc1nc(Cl)nc2c1ncn2[C@@H]1O[C@H](CO)[C@@H](O)[C@@H]1F", 0.255),
    ("O=C(O)CSc1cc(NS(=O)(=O)c2ccc(Br)cc2)c2ccccc2c1O", 0.873),
    ("Nc1nc(=S)c2[nH]cnc2[nH]1", 0.25),
]

====

Test system: primary CLL patient cells (S043)
Experiment: viability relative to DMSO control (fraction); higher = less drug effect (more viable cells)
Settings: 0.024 µM; 48 h

# Smiles Code, viability
rows = [
    ("Nc1nc(=S)c2[nH]cnc2[nH]1", 0.884),
    ("O=C(c1cc(Cc2n[nH]c(=O)c3ccccc23)ccc1F)N1CCN(C(=O)C2CC2)CC1", 0.797),
    ("CNC(=O)c1cc(Oc2ccc(NC(=O)Nc3ccc(Cl)c(C(F)(F)F)c3)cc2)ccn1", 0.938),
    ("Oc1ccc(/C=C/c2cc(O)cc(O)c2)cc1", 0.825),
    ("CCN1CCN(Cc2ccc(Nc3ncc(F)c(-c4cc(F)c5nc(C)n(C(C)C)c5c4)n3)nc2)CC1", 0.893),
    ("C[C@@H](Oc1cc(-c2cnn(C3CCNCC3)c2)cnc1N)c1c(Cl)ccc(F)c1Cl", 0.95),
    ("O=C(Nc1cccc(C(F)(F)F)c1)Nc1cc(S(=O)(=O)NC2CC2)ccc1-c1ccsc1", 0.927),
    ("Cc1cc(Nc2ncc(Cl)c(Nc3ccccc3S(=O)(=O)C(C)C)n2)c(OC(C)C)cc1C1CCNCC1", 1.05),
]

====

# Lookup of reported viability keyed by entry
Test system: primary BL patient cells (S005)
Assay: viability relative to DMSO control (fraction); higher = less drug effect (more viable cells)
Conditions: 0.6 µM; 48 h

# Compound, Assayed System, viability
measured = [
    ("O=C(c1cc(Cc2n[nH]c(=O)c3ccccc23)ccc1F)N1CCN(C(=O)C2CC2)CC1 [Olaparib]", "primary BL patient cells (S005)", 0.977),
    ("Oc1ccc(/C=C/c2cc(O)cc(O)c2)cc1 [Resveratrol]", "primary BL patient cells (S005)", 0.921),
    ("O=C(Nc1cccc(C(F)(F)F)c1)Nc1cc(S(=O)(=O)NC2CC2)ccc1-c1ccsc1 [AGI-6780]", "primary BL patient cells (S005)", 0.932),
    ("CNC(=O)c1cc(Oc2ccc(NC(=O)Nc3ccc(Cl)c(C(F)(F)F)c3)cc2)ccn1 [Sorafenib]", "primary BL patient cells (S005)", 0.92),
    ("C[C@@H](Oc1cc(-c2cnn(C3CCNCC3)c2)cnc1N)c1c(Cl)ccc(F)c1Cl [Crizotinib]", "primary BL patient cells (S005)", 0.905),
    ("N#CC[C@H](C1CCCC1)n1cc(-c2ncnc3[nH]ccc23)cn1 [Ruxolitinib]", "primary BL patient cells (S005)", 0.974),
]

====

Measured viability by item
Tested on: primary AML patient cells (S037)
Experiment: viability relative to DMSO control (fraction); higher = less drug effect (more viable cells)
Conditions: 0.016 µM; 48 h
Endpoint Name: viability

# Smiles Code, Assay Result
records = [
    ("O=C(Nc1nc2ccccc2n1CCN1CCOCC1)c1cccc([N+](=O)[O-])c1", 0.878),
    ("CN1CC[C@H](c2c(O)cc(O)c3c(=O)cc(-c4ccccc4Cl)oc23)[C@H](O)C1", 0.948),
    ("Cc1sc2c(c1C)C(c1ccc(Cl)cc1)=N[C@@H](CC(=O)Nc1ccc(O)cc1)c1nnc(C)n1-2", 1.11),
    ("Nc1nc(F)nc2c1ncn2[C@@H]1O[C@H](CO)[C@@H](O)[C@@H]1O", 1.25),
    ("CC1(COc2ccc3c(c2)ncn3-c2ccc3cccc(N4CCC(N)CC4)c3n2)COC1", 1.06),
]

====

Tested on: primary AML patient cells (S081)
Assay: viability relative to DMSO control (fraction); higher = less drug effect (more viable cells)
Details: 0.016 µM; 48 h
viability values, listed per item

# Smiles Code, viability
rows = [
    ("Nc1nc(F)nc2c1ncn2[C@@H]1O[C@H](CO)[C@@H](O)[C@@H]1O", 1.1),
    ("CC(C)c1cc(C(=O)N2Cc3ccc(CN4CCN(C)CC4)cc3C2)c(O)cc1O", 1.08),
    ("Cc1sc2c(c1C)C(c1ccc(Cl)cc1)=N[C@@H](CC(=O)Nc1ccc(O)cc1)c1nnc(C)n1-2", 0.847),
    ("CC(C)c1cc(-c2n[nH]c(=O)n2-c2ccc3c(ccn3C)c2)c(O)cc1O", 0.674),
    ("CC[C@H](Nc1ncnc2[nH]cnc12)c1nc2cccc(F)c2c(=O)n1-c1ccccc1", 1.04),
]
